- System: KOPN-8 cells
- PROTOCOL: 72-hour resazurin-based cytotoxicity assay, KOPN-8
- Set-up: species or system human
- CONDITION DETAILS: KOPN-8, KMT2A-r t(11;19), infant pre-B cell ALL
pIC50: −log10 of the molar value.
REPORTED METRIC: pIC50

pIC50 recorded for this compound, CCOC(=O)C(C)Oc1cccc2c(=O)n(CC(=O)Nc3ccc4c(c3)OCCO4)ccc12 (stereo not shown) , is < 4.70

----------
- System: THP-1 cells
- PROTOCOL: 72-hour resazurin-based cytotoxicity assay, THP-1
- Assay type: cell-based, human
- CONDITION DETAILS: Homo sapiens, THP-1, KMT2A-r t(9;11), infant AML
REPORTED METRIC: IC50 (µM)
Please respond with the number in µM and leave the unit unwritten.

Recorded IC50 (molecule CN(C(=O)CN(CCO)CC(=O)N(C)C(C)(C)Cc1ccccc1)C(C)(C)Cc1ccccc1 [Oxethazaine, oxethazaine] ): 15

----------
Reported IC50 values for a set of compounds
- Test system: MRC-5 cells
- PROTOCOL: 72-hour resazurin-based cytotoxicity assay, MRC-5
- Assay type: cell-based, human
- CONDITION DETAILS: Homo sapiens, MRC5, MRC-5, non-malignant, normal lung

COMPOUND	IC50
CN(C(=O)CN(CCO)CC(=O)N(C)C(C)(C)Cc1ccccc1)C(C)(C)Cc1ccccc1	> 20 µM

# evaluate next
IC50 for MRC-5 cells with input Nc1nc(Cl)nc2c1ncn2[C@@H]1O[C@H](COP(=O)(O)OP(=O)(O)OP(=O)(O)O)[C@@H](O)[C@H]1O [2-Cl-ATP, 2-chloroadenosine triphosphate] equals > 20 µM

----------
- Tested on: CEM cells
- PROTOCOL: 72-hour resazurin-based cytotoxicity assay, CEM
- Design: species or system human
- CONDITION DETAILS: Homo sapiens, CCRF-CEM, KMT2A-wt, childhood T-cell ALL
REPORTED METRIC: IC50 (µM)
Express it in µM; write the number only.

COMPOUND	REPORTED METRIC	READOUT UNIT	EXPERIMENTAL RESULT
CN(C(=O)CN(CCO)CC(=O)N(C)C(C)(C)Cc1ccccc1)C(C)(C)Cc1ccccc1	IC50	µM	10.6

# evaluate next
Nc1nc(Cl)nc2c1ncn2[C@@H]1O[C@H](COP(=O)(O)OP(=O)(O)OP(=O)(O)O)[C@@H](O)[C@H]1O [2-Cl-ATP, 2-chloroadenosine triphosphate] tested on CEM cells gave IC50: 11.4

----------
- Tested on: WI-38 cells
- PROTOCOL: 72-hour resazurin-based cytotoxicity assay, WI-38
- Assay type: cell-based, human
- CONDITION DETAILS: WI-38, non-malignant, normal lung
REPORTED METRIC: IC50

For record CCOC(=O)C(C)Oc1cccc2c(=O)n(CC(=O)Nc3ccc4c(c3)OCCO4)ccc12 (stereo not shown) the listed IC50 is > 20 µM

----------
- System: SEMK2 cells
- PROTOCOL: 72-hour resazurin-based cytotoxicity assay, SEMK2
- Design: species or system human
- CONDITION DETAILS: SEMK2, KMT2A-r t(4;11), pre-B cell childhood ALL
pIC50: −log10 of the molar value.
REPORTED METRIC: pIC50

// returns pIC50 for CCOC(=O)C(C)Oc1cccc2c(=O)n(CC(=O)Nc3ccc4c(c3)OCCO4)ccc12 (stereo not shown) with SEMK2 cells; value = < 4.70

----------
- System: MRC-5 cells
- PROTOCOL: 72-hour resazurin-based cytotoxicity assay, MRC-5
- Format: cell-based, human
- CONDITION DETAILS: MRC-5, non-malignant, normal lung
pIC50: −log10 of the molar value.
REPORTED METRIC: pIC50

Reported pIC50 for CCOC(=O)C(C)Oc1cccc2c(=O)n(CC(=O)Nc3ccc4c(c3)OCCO4)ccc12 (stereo not shown) was < 4.70

----------
- System: MOLM-13 cells
- PROTOCOL: 72-hour resazurin-based cytotoxicity assay, MOLM-13
- Format: cell-based, human
- CONDITION DETAILS: Homo sapiens, MOLM-13, KMT2A-r t(9;11), AML
REPORTED METRIC: pIC50
Reminder that pIC50 means the negative base-10 logarithm of the concentration expressed in mol/L.

MOLECULE	TARGET UNDER TEST	pIC50
Nc1nc(Cl)nc2c1ncn2[C@@H]1O[C@H](COP(=O)(O)OP(=O)(O)OP(=O)(O)O)[C@@H](O)[C@H]1O [2-Cl-ATP, 2-chloroadenosine triphosphate]	MOLM-13 cells	5.25

Proceed to the following item.
# lookup: CN(C(=O)CN(CCO)CC(=O)N(C)C(C)(C)Cc1ccccc1)C(C)(C)Cc1ccccc1 on MOLM-13 cells, pIC50 = 5.42

----------
- Tested on: PER-485 cells
- PROTOCOL: 72-hour resazurin-based cytotoxicity assay, PER-485
- Assay type: cell-based, human
- CONDITION DETAILS: PER-485, KMT2A-r t(4;11), infant ALL derived
REPORTED METRIC: IC50
Lab note: write values as number then unit, every time.

> print(dat)
                                   compound  experimental.result
1  CCOC(=O)C(C)Oc1cccc2c(=O)n(CC(=O)Nc3ccc4c(c3)OCCO4)ccc12 (centres unmarked)              1400 nM

Consider the record given below.
Case O=C(O)c1cc2c(cn1)[nH]c1ccccc12 [β-CCB, β-carboline-3-carboxylate] , PER-485 cells, IC50 recorded as 2600 nM

----------
- Tested on: REH cells
- PROTOCOL: 72-hour resazurin-based cytotoxicity assay, REH
- Parameters: species or system human
- CONDITION DETAILS: Homo sapiens, KMT2A-wt, pre-B cell ALL
REPORTED METRIC: IC50 (µM)
The answer is to be given in µM; state only the numeric part.

Kindly note the recorded IC50 for CN(C(=O)CN(CCO)CC(=O)N(C)C(C)(C)Cc1ccccc1)C(C)(C)Cc1ccccc1 , which is 4.9
